# assayed target: Phosphoethanolamine/phosphocholine phosphatase (Homo sapiens, UniProt Q8TCT1)
# Sequence (Q8TCT1 whole entry): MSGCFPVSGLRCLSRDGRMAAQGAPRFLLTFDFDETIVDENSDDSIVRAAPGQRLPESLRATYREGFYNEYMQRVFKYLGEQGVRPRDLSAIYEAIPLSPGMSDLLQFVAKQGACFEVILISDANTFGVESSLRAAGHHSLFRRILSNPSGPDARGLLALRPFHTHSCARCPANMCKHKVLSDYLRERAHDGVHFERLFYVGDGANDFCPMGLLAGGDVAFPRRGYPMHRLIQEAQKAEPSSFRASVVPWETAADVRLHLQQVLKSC
readout type: IC50

Examples with their reported IC50 follow.
>>> observed_value("Cc1ccc(C)c(-n2sc3ccccc3c2=O)c1")
"4 µM"
>>> observed_value("Cc1cccc(-n2sc3cc(F)ccc3c2=O)c1C")
"4.7 µM"
>>> observed_value("O=c1c2ccc(F)cc2sn1-c1ccc(F)cc1")
"> 10 µM"
>>> observed_value("O=c1c2ccccc2sn1-c1cc(S(=O)(=O)N2CCOCC2)ccc1N1CCCC1")
"7.5 µM"
>>> observed_value("Cc1ccc(C)c(-n2sc3cc(F)ccc3c2=O)c1")
"3.3 µM"

Ask: Entry under review: O=c1c2ccc(F)cc2sn1-c1ccccc1 . Reported IC50?
Result: 0.79 µM

Ask: Entry under review: Cc1ccc(-n2sc3ccccc3c2=O)cc1 . Reported IC50?
Result: 1.3 µM

Ask: Entry under review: O=c1c2ccccc2sn1-c1cc(S(=O)(=O)N2CCOCC2)ccc1N1CCOCC1 . Reported IC50?
Result: 1.2 µM

Ask: Entry under review: COc1ccc(-n2sc3cc(F)ccc3c2=O)cc1 . Reported IC50?
Result: 6.7 µM

---

# test summary: Metabolic stability in human liver microsomes measured at 1 uM after 1 hr at pH 7.4 by LC-MS/MS analysis in absence of NADPH
# Format: ADME
# measurement parameters: read-out: Stability
readout type: remaining at 1 h, 1 µM (%)
Record the value in %, omitting the unit from your answer.

Ask: Entry under review: COC(=O)c1cccc(-n2sc3ccccc3c2=O)c1 . Reported remaining at 1 h, 1 µM?
Result: 31.5

---

Here the recorded solubility kinetic is given for each entry.
# test summary: Aqueous solubility of the compound in pH 5 pION buffer by UV kinetic solubility method
# Type: physicochemical

Examples with their reported solubility kinetic follow.
>>> observed_value("COC(=O)c1cccc(-n2sc3ccccc3c2=O)c1")
"12.6 µg/mL"
>>> observed_value("CN(C)C(=O)c1cccc(-n2sc3ccccc3c2=O)c1")
"> 30 µg/mL"
>>> observed_value("O=C(O)c1cccc(-n2sc3ccccc3c2=O)c1")
"> 27 µg/mL"

# next molecule below
Ask: Entry under review: CN(C)S(=O)(=O)c1cccc(-n2sc3ccccc3c2=O)c1 . Reported solubility kinetic?
Result: 23.4 µg/mL

---

# assayed target: UniProtKB P05186
# Sequence (P05186 whole entry): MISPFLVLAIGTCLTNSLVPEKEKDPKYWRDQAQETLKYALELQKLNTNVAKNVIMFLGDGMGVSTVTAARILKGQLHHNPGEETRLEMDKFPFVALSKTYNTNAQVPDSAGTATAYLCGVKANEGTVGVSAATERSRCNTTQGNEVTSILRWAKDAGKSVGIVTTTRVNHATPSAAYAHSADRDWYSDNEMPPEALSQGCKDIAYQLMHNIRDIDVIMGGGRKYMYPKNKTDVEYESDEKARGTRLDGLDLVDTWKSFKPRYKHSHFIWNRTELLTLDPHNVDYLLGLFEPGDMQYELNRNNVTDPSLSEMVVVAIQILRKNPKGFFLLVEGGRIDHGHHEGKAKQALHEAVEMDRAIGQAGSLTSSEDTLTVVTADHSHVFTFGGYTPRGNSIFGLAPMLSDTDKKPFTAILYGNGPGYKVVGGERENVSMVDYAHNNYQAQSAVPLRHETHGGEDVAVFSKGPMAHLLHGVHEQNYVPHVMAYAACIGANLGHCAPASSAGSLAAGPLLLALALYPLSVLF
readout type: IC50

Ask: Entry under review: CN(C)C(=O)c1cccc(-n2sc3ccccc3c2=O)c1 . Reported IC50?
Result: > 100 µM
